# target: H2K^b (Mus musculus, UniProt P01901)
# Construct: […]; endogenous in cells; host or cells: RMA/S cells (TAP-deficient)
# Sequence (P01901 22-369): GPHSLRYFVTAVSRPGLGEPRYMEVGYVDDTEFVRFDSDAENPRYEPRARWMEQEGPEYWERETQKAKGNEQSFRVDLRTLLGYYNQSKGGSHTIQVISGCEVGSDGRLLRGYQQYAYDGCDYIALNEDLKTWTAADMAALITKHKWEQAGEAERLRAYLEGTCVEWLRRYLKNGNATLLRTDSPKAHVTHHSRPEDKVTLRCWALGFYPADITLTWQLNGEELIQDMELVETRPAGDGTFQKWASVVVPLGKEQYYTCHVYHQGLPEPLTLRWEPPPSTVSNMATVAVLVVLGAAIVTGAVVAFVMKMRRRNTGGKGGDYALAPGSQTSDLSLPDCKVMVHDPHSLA
# Sequence (P01887 21-119, further chain): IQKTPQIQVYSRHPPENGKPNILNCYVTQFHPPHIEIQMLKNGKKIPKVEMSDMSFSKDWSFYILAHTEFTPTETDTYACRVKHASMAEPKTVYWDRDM
# Type: cell-based
# condition_context: Figure 1B; TAP-deficient RMA/S cells, peptide 2 h 26°C then 2 h 37°C, anti-H2K^b FACS MFI; experiment repeated 3 times; read-out: EC50 (H2K^b stabilization)
No end group written: not given here.
// reported pEC50 per item
Note on pEC50: it is the negative log10 of concentration, concentration in mol/L.

Worked cases, answers included:
>  <residue_codes>
SIIGFEKL [G4]

>  <experimental_result>
7.47

$$$$
>  <residue_codes>
SIIVFEKL [V4]

>  <experimental_result>
7.20

$$$$
>  <residue_codes>
SIIRFEKL [R4]

>  <experimental_result>
7.25

$$$$
>  <residue_codes>
SIINFEKA [A8]

>  <experimental_result>
5.61

$$$$
>  <residue_codes>
SIIQFEKL [Q4]

>  <experimental_result>
7.52

$$$$

With H2K^b (Mus musculus, UniProt P01901) as the test system, EIINFEKL [E1] showed pEC50 of 6.63
